# assayProcedure: Antioxidant activity assessed as ABTS+ radical scavenging activity after 30 mins by UV-vis spectrophotometric analysis
# Assay type: functional
measuredProperty: IC50 (µM)
Value expressed in µM; do not type the unit.

Exam item: Entry COc1cc(C2CC(=NO)CC(c3ccc(O)c(OC)c3)N2C)ccc1O (stereo not given) needs its IC50 filled in; supply it.
Marked response: 158

Exam item: Entry COc1cc(C2CC(=NOC(=O)c3cccc(O)c3)CC(c3ccc(O)c(OC)c3)N2C)ccc1O (stereo not given) needs its IC50 filled in; supply it.
Marked response: 16.5

Exam item: Entry COc1cc(C2CC(=NOC(=O)c3ccc(Cl)cc3)CC(c3ccc(O)c(OC)c3)N2C)ccc1O (stereo not given) needs its IC50 filled in; supply it.
Marked response: 112

Exam item: Entry COc1ccc(C(=O)ON=C2CC(c3ccc(O)c(OC)c3)N(C)C(c3ccc(O)c(OC)c3)C2)cc1 (stereo not given) needs its IC50 filled in; supply it.
Marked response: 33

Exam item: Entry COc1cc(C2CC(=NOC(=O)c3ccccc3)CC(c3ccc(O)c(OC)c3)N2C)ccc1O (stereo not given) needs its IC50 filled in; supply it.
Marked response: 156
